From: the RNAGym collection of RNA variant scans (doi:10.1021/acssynbio.7b00057)

Measured aptazyme ON/OFF ratio, listed per entry.
B1: Pistol ribozyme (parent)
chain: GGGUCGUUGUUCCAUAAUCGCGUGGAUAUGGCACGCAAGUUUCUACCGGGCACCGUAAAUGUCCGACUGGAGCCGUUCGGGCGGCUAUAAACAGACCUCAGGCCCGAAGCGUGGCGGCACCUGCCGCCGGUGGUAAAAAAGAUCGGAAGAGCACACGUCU

- Variants of: B1
- Assay method text: aptazyme ON/OFF ratio, guanine; higher = stronger switching; co-transcriptional cleavage with and without guanine

- Mut: "U7G G9A U10C U11C C13G"
  aptazyme ON/OFF ratio: 1.03
- Mut: "U8A G9C U10G U11G C12A C13A"
  aptazyme ON/OFF ratio: 1.13
- Mut: "U7A U8A G9C U11G C12G C13A"
  aptazyme ON/OFF ratio: 1.31
- Mut: "U10G C12A"
  aptazyme ON/OFF ratio: 1.41
- Mut: "U8C G9A U10C U11A C13U"
  aptazyme ON/OFF ratio: 1.3
- Mut: "U7G U8C G9A U10G U11C C12G C13A"
  aptazyme ON/OFF ratio: 1.14
- Mut: "U8G U10A U11C C12U C13G"
  aptazyme ON/OFF ratio: 1.28
- Mut: "G9C U10C C13A"
  aptazyme ON/OFF ratio: 1.06
- Mut: "U8A G9U U11C C12G C13G"
  aptazyme ON/OFF ratio: 1.16
- Mut: "U7A U8C G9U U10C U11C C12U C13U"
  aptazyme ON/OFF ratio: 1.1
- Mut: "U7G U8G U10C U11A C13A"
  aptazyme ON/OFF ratio: 1.38
- Mut: "U7C U8G U10G U11G C12G C13G"
  aptazyme ON/OFF ratio: 1.15
- Mut: "U7A U8G G9U U10G U11G C13A"
  aptazyme ON/OFF ratio: 1.16
- Mut: "U8A G9C U10C U11G C12U C13U"
  aptazyme ON/OFF ratio: 1.07
- Mut: "U7C G9U U10A U11G C12G C13G"
  aptazyme ON/OFF ratio: 1.14
- Mut: "U7C U8G G9U U10A U11G C12G C13G"
  aptazyme ON/OFF ratio: 1.18
- Mut: "U7A U8A G9U U10A U11G C12G"
  aptazyme ON/OFF ratio: 1.19
- Mut: "U7C U10G U11C C12A"
  aptazyme ON/OFF ratio: 2.07
- Mut: "U7G U8A U10G C13U"
  aptazyme ON/OFF ratio: 1.29
- Mut: "U7C U8A G9A U10A U11A C12A C13U"
  aptazyme ON/OFF ratio: 1.18
- Mut: "U8C G9A U10G U11G C12A C13U"
  aptazyme ON/OFF ratio: 1.2
- Mut: "U7A U8A G9A U10G C12A"
  aptazyme ON/OFF ratio: 1.18
